- assay_name: Plasma protein binding in human
- Assay type: ADME, cell-free
- run_parameters: read-out: PPB (converted)
Please provide measured fraction unbound for the entries that follow.

Ask | Given the compound O=C(Nc1cc(-c2cc3c([nH]2)C2(CCNC2)CNC3=O)ccn1)c1cccc(OC(F)(F)F)c1 (racemic) , what is its reported fraction unbound?
Reply | 0.017

Ask | Given the compound `O=C(Nc1cc(-c2cc3c([nH]2)C2(CCNCC2)CNC3=O)ccn1)c1ccc2ccccc2c1` , what is its reported fraction unbound?
Reply | 0.003

Ask | Given the compound O=C(Nc1cc(-c2cc3c([nH]2)C2(CCCNC2)CNC3=O)ccn1)c1ccc2ccccc2c1 (single isomer, unassigned) , what is its reported fraction unbound?
Reply | 0.004

Ask | Given the compound O=C(Nc1cc(-c2cc3c([nH]2)C2(CCCNC2)CNC3=O)ccn1)c1cccc(OC(F)(F)F)c1 (racemic) , what is its reported fraction unbound?
Reply | 0.013

Ask | Given the compound `CN1CCC2(CC1)CNC(=O)c1cc(-c3ccnc(NC(=O)c4cccc(OC(F)(F)F)c4)c3)[nH]c12` , what is its reported fraction unbound?
Reply | 0.027

Ask | Given the compound `CN1CCC2(CC1)CNC(=O)c1cc(-c3ccnc(NC(=O)c4ccc5ccccc5c4)c3)[nH]c12` , what is its reported fraction unbound?
Reply | 0.005

Ask | Given the compound `O=C(Nc1cc(-c2cc3c([nH]2)C2(CCNCC2)CNC3=O)ccn1)c1cccc(OC(F)(F)F)c1` , what is its reported fraction unbound?
Reply | 0.042

Ask | Given the compound O=C(Nc1cc(-c2cc3c([nH]2)C2(CCNC2)CNC3=O)ccn1)c1ccc2ccccc2c1 (racemic) , what is its reported fraction unbound?
Reply | 0.002
